Tested on: PCA response
Test: rat Passive Cutaneous Anaphylaxis Test (PCA test)
Assay type: in vivo, rat (male Wistar)
Conditions: sc, 10 min, 5 mg/kg, 10 mins. prior to challenge, subcutaneous, sodium salt

{"columns": ["MOLECULE", "EXPERIMENTAL_SYSTEM", "inhibition in vivo at 5 mg/kg"],
 "data": [
  ["CCc1cc2oc(=O)c(C#N)c(O)c2cc1CC [Example 12, 3-Cyano-6,7-diethyl-4-hydroxy coumarin]", "PCA response", "72%"],
  ["COc1cccc2c1C(=O)C(C#N)C2=O (stereo not shown) [Example 5, 2-Cyano-4-methoxy indan-1,3-dione]", "PCA response", "28%"],
  ["CCc1cc2c(cc1CC)C(=O)C(C#N)C2=O [Example 8, 2-Cyano-5,6-diethyl indan-1,3-dione]", "PCA response", "74%"],
  ["Cc1cc2c(cc1C)C(=O)C(C#N)C2=O [Example 3, 2-Cyano-5,6-dimethyl indan-1,3-dione]", "PCA response", "56%"],
  ["CCOc1ccc2c(O)c(C#N)c(=O)oc2c1 [Example 16, monohydrate]", "PCA response", "59%"],
  ["Cc1ccc2c(O)c(C#N)c(=O)oc2c1C [Example 21, monohydrate]", "PCA response", "39%"],
  ["Cc1cccc2c1C(=O)C(C#N)C2=O (stereo not shown) [Example 4, 2-Cyano-4-methyl indan-1,3-dione]", "PCA response", "21%"]
]}

---

Tested on: PCA response
Experiment: rat Passive Cutaneous Anaphylaxis Test (PCA test)
Assay type: in vivo, rat (male Wistar)
Details: sc, 10 min, 40 mg/kg, 10 mins. prior to challenge, subcutaneous, sodium salt
Collected inhibition in vivo at 40 mg/kg values appear next to each entry.
EXPERIMENTAL_ENDPOINT: inhibition in vivo at 40 mg/kg (%)

{"columns": ["MOLECULE", "EXPERIMENTAL_SYSTEM", "EXPERIMENTAL_ENDPOINT", "SCALE_UNIT", "NUMERIC_VALUE"],
 "data": [
  ["CCc1cc2c(cc1CC)C(=O)C(C#N)C2=O", "PCA response", "inhibition in vivo at 40 mg/kg", "%", 64],
  ["COc1cccc2c1C(=O)C(C#N)C2=O (stereo not shown)", "PCA response", "inhibition in vivo at 40 mg/kg", "%", 81],
  ["CCOc1ccc2c(O)c(C#N)c(=O)oc2c1 [Example 16, monohydrate]", "PCA response", "inhibition in vivo at 40 mg/kg", "%", 73],
  ["Cc1cccc2c1C(=O)C(C#N)C2=O (stereo not shown)", "PCA response", "inhibition in vivo at 40 mg/kg", "%", 83]
]}
